system: Escherichia coli IAI1; experiment: fold change of Cadaverine concentration vs plate DMSO controls (fold change (ratio)); higher = more amine produced, active = hit call of the paper (significant change in both replicates, either direction); details: incubation time: 27 h, anaerobic, 37 °C
Structures can show the parent of a compound that is named as a salt.
Where fold change of Cadaverine concentration equals or exceeds 1, the correct label is MET; where it does not, the label is NOT MET.

Please review the following examples before continuing.
CC(COc1ccccc1)NN (stereo unspecified) [Phenoxypropazine dihydrochloride] (20 µM); NOT MET
CCCNC(C)C(=O)Nc1c(C)csc1C(=O)OC (stereo unspecified) [Articaine hydrochloride] (20 µM); NOT MET
COC(=O)C1=C(C#N)NC(C)=C(C(=O)OC(C)C)C1c1cccc([N+](=O)[O-])c1 (stereo unspecified) [Nilvadipine] (20 µM); MET
CNCC[C@@H](Oc1cccc2ccccc12)c1cccs1 [(R)-Duloxetine hydrochloride] (20 µM); NOT MET
CN1Cc2c(N)cccc2C(c2ccccc2)C1 (stereo unspecified) [Nomifensine maleate] (20 µM); NOT MET
CC(CN1c2ccccc2Sc2ccccc21)N(C)C (stereo unspecified) [Promethazine hydrochloride] (20 µM); MET
Nc1nc(N)c2nc(-c3ccccc3)c(N)nc2n1 [Triamterene] (20 µM); MET
NS(=O)(=O)c1cc2c(cc1Cl)NC(C(Cl)Cl)NS2(=O)=O (stereo unspecified) [Trichlormethiazide] (20 µM); MET

Check if fold change of Cadaverine concentration >= 1 (inclusive). Item: CO/N=C(\C(=O)N[C@@H]1C(=O)N2C(C(=O)OC(C)OC(C)=O)=C(COC(N)=O)CS[C@H]12)c1ccco1 (stereo partly specified) [Cefuroxime axetil] (20 µM)
MET

And for NC(=O)c1cc[n+](CC2=C(C(=O)O)N3C(=O)[C@@H](NC(=O)C(c4ccccc4)S(=O)(=O)[O-])[C@H]3SC2)cc1 (stereo partly specified) [Cefsulodin Sodium Salt Hydrate] (20 µM) ?
MET

And for CCN(CC)CCNC(=O)c1cc(Cl)c(N)cc1OC [Metoclopramide monohydrochloride] (20 µM) ?
NOT MET

* * *

test system: Clostridium sporogenes DSM 1664; test: growth (OD595) fold change vs plate DMSO controls (fold change (ratio)); higher = more growth; details: incubation time: 27 h, anaerobic, 37 °C
Structures can show the parent of a compound that is named as a salt.
Record form. Attribute: growth. Fill in for each entry.
Numbers only.

// for each compound below, give its growth
1. O=C(CCCN1CC=C(n2c(=O)[nH]c3ccccc32)CC1)c1ccc(F)cc1 [Droperidol] (20 µM)
2. Cc1cccc(C)c1NC(=O)C1CCCCN1C (stereo unspecified) [Mepivacaine hydrochloride] (20 µM)
3. CC(=O)Nc1cccc(O)c1 [Metacetamol] (20 µM)

1. 1.02
2. 1.21
3. 0.961

// for each compound below, give its growth
1. CCCOc1ccc2[nH]c(NC(=O)OC)nc2c1 [Oxibendazol] (20 µM)
2. O=C(NCCNCC(O)COc1ccc(O)cc1)N1CCOCC1 (stereo unspecified) [Xamoterol hemifumarate] (20 µM)
3. COc1cc2c(cc1OC)CC(=O)N(CCCN(C)C[C@H]1Cc3cc(OC)c(OC)cc31)CC2 [Ivabradine hydrochloride] (20 µM)
4. CCOC(=O)[C@H](CCc1ccccc1)N[C@@H](C)C(=O)N1Cc2ccccc2C[C@H]1C(=O)O [Quinapril hydrochloride] (20 µM)

1: 0.862; 2: 1.1; 3: 1.05; 4: 1.03

* * *

system: Klebsiella aerogenes DSM 30053; assay: fold change of Histamine concentration vs plate DMSO controls (fold change (ratio)); higher = more amine produced, active = hit call of the paper (significant change in both replicates, either direction); conditions: incubation time: 27 h, anaerobic, 37 °C
Counter-ions that a name gives are not always drawn.
Endpoint: fold change of Histamine concentration
Give bare numbers.

NC(=O)C1CO1 (stereo not drawn) [Glycidamide] (20 µM); 1.05
OC(CCN1CCCC1)(c1ccccc1)C1CCCCC1 (stereo not drawn) [Procyclidine hydrochloride] (20 µM); 0.947
Nc1nc(=S)c2ncn([C@@H]3O[C@H](CO)[C@@H](O)[C@H]3O)c2[nH]1 [Thioguanosine] (20 µM); 0.953

// for each molecule below, give its fold change of Histamine concentration
1. Fc1ccc([C@@H]2CCNC[C@H]2COc2ccc3c(c2)OCO3)cc1 [Paroxetine hydrochloride] (20 µM)
2. NNc1nncc2ccccc12 [Hydralazine hydrochloride] (20 µM)
3. COc1cc2c(cc1OC)CC(=O)N(CCCN(C)C[C@H]1Cc3cc(OC)c(OC)cc31)CC2 [Ivabradine hydrochloride] (20 µM)
4. COc1ccc2[nH]c([S+]([O-])Cc3ncc(C)c(OC)c3C)nc2c1 (stereo not drawn) [Omeprazole] (20 µM)
5. CCCCC(=O)N(Cc1ccc(-c2ccccc2-c2nnn[nH]2)cc1)[C@H](C(=O)O)C(C)C [Valsartan] (20 µM)

[1.05, 1.07, 1.02, 0.936, 0.913]

* * *

test system: Escherichia coli IAI1; experiment: fold change of Cadaverine concentration vs plate DMSO controls (fold change (ratio)); higher = more amine produced, active = hit call of the paper (significant change in both replicates, either direction); conditions: incubation time: 27 h, anaerobic, 37 °C
Where a name gives a salt, the structure may show the parent alone.
Endpoint: fold change of Cadaverine concentration
Numbers only.

CC(C)(Oc1ccc(Cl)cc1)C(=O)O [Clofibric acid] (20 µM); 1

// for each compound below, give its fold change of Cadaverine concentration
1. CC(C)NC[C@H](O)COc1ccc(CC(N)=O)cc1 [(S,-) Atenolol] (20 µM)
2. COc1c(N2CCNC(C)C2)c(F)cc2c(=O)c(C(=O)O)cn(C3CC3)c12 (stereo not drawn) [Gatifloxacin] (20 µM)
3. O=C1CN(/N=C/c2ccc(-c3ccc([N+](=O)[O-])cc3)o2)C(=O)N1 [Dantrolene sodium salt] (20 µM)
4. CCN1CCC[C@H]1CNC(=O)c1c(OC)ccc(Br)c1OC [Remoxipride hydrochloride] (20 µM)
5. N[C@H]1CONC1=O [(S,-) Cycloserine] (20 µM)

0.954
0.264
1.06
1.03
0.959

// for each compound below, give its fold change of Cadaverine concentration
1. CN(N=O)C(=O)N[C@H]1C(O)O[C@H](CO)[C@@H](O)[C@@H]1O (mixture of isomers) [Streptozotocin] (20 µM)
2. O=C(O)c1cn(-c2ccc(F)cc2)c2cc(N3CCNCC3)c(F)cc2c1=O [Sarafloxacin] (20 µM)
3. O=C(CCCN1CCN(c2ccccn2)CC1)c1ccc(F)cc1 [Azaperone] (20 µM)
4. C=CCN1CCCC1CNC(=O)c1cc2nn[nH]c2cc1OC (stereo not drawn) [Alizapride hydrochloride] (20 µM)
5. CNCCC=C1c2ccccc2C=Cc2ccccc21 [Norcyclobenzaprine] (20 µM)

1: 1.31; 2: 0.244; 3: 0.84; 4: 0.998; 5: 1.02

* * *

tested on: Ruminococcus gnavus DSM 108212; assay: fold change of 2-Phenylethylamine concentration vs plate DMSO controls (fold change (ratio)); higher = more amine produced, active = hit call of the paper (significant change in both replicates, either direction); settings: incubation time: 27 h, anaerobic, 37 °C
Counter-ions that a name gives are not always drawn.
Record form. Attribute: fold change of 2-Phenylethylamine concentration. Fill in for each entry.

As a guide, the following entries are already answered.
CC(=O)SCC(Cc1ccccc1)C(=O)NCC(=O)OCc1ccccc1 (stereo unspecified) [Racecadotril] (20 µM); 0.954 (inactive)
C(=C\c1ccccc1)/CN1CCN(C(c2ccccc2)c2ccccc2)CC1 [Cinnarizine] (20 µM); 0.878 (inactive)
C[C@@H]1O[C@@H](O[C@H]2[C@H](Oc3cc(O)c(C(=O)CCc4ccc(O)cc4)c(O)c3)O[C@H](CO)[C@@H](O)[C@@H]2O)[C@H](O)[C@H](O)[C@H]1O [Naringin Dihydrochalcone] (50 µM); 0.966 (inactive)

// for each compound below, give its fold change of 2-Phenylethylamine concentration
1. COc1ccc(-c2cc(=S)ss2)cc1 [Anethole-trithione] (20 µM)
2. Cc1cccc(C)c1NC(=O)C1CCCCN1C (stereo unspecified) [Mepivacaine hydrochloride] (20 µM)

1: 1.07 (inactive); 2: 1.05 (inactive)

// for each compound below, give its fold change of 2-Phenylethylamine concentration
1. CN1C(=O)CC(c2ccccc2)C1=O (stereo unspecified) [Phensuximide] (20 µM)
2. C[C@]12CCC(=O)C=C1CC[C@@H]1[C@@H]2[C@@H](O)C[C@@]2(C)[C@H]1CC[C@]2(O)C(=O)CO [Hydrocortisone] (20 µM)
3. CC1COc2ccccc2N1C(=O)C(Cl)Cl (stereo unspecified) (20 µM)
4. C[C@@H]1CCO[C@H]2Cn3cc(C(=O)NCc4ccc(F)cc4F)c(=O)c(O)c3C(=O)N12 [Dolutegravir] (20 µM)
5. O=C(O)Cc1ccccc1Oc1ccc(Cl)cc1Cl [Fenclofenac] (20 µM)
6. NC12CC3CC(CC(C3)C1)C2 [Adamantamine fumarate] (20 µM)

["1.02 (inactive)", "0.975 (inactive)", "1.11 (inactive)", "0.941 (inactive)", "1.07 (inactive)", "1.23 (inactive)"]
